assay: solubility of ibudilast in water; format: physicochemical
RESULT TYPE: solubility (µg/mL)
Supply the numeric figure in µg/mL, leaving out any unit text.

Which solubility value belongs to CC(C)C(=O)c1c(C(C)C)nn2ccccc12 [ibudilast] ?
150

Numbers sourced from patent EP0320002A1.
